Test system: Kluyveromyces marxianus
Test: Antifungal activity against Candida kefyr by microbroth dilution method
Format: functional
recordedEndpoint: MIC80 (µg/mL)
// note: answer is a bare numeric in µg/mL

Q: Fill blank: measured MIC80 of the molecule OC(Cc1cn(Cc2cc(Cl)cc(Cl)c2)nn1)(Cn1cncn1)c1ccc(F)cc1F (stereo not given) is ____.
Result: 0.5

Q: I'd like to know its MIC80. The molecule in question is COc1ccc(OC)c(Cn2cc(CC(O)(Cn3cncn3)c3ccc(F)cc3F)nn2)c1 (stereo not given)
Result: 0.0625

Q: May I ask what MIC80 has been recorded for COc1ccc(Cn2cc(CC(O)(Cn3cncn3)c3ccc(F)cc3F)nn2)cc1OC (stereo not given) ?
Result: 0.0625

Q: # input molecule: OC(Cc1cn(Cc2ccc(F)c(F)c2)nn1)(Cn1cncn1)c1ccc(F)cc1F (stereo not given) ; wanted: its MIC80
Result: 0.25
